Below, each entry is listed with its recorded viability, T/C.
- System: 422866-222-R5-J1-PDC complex spheroids viability
- Test: Anticancer human tumor 422866-222-R5-J1-PDC patient-derived pancreatic adenocarcinoma cell line growth inhibition [RAS]
- Measurement Conditions: second compound 0.003 µM; first compound 0.0316 µM; hits give low values
Please give a number only; it is taken to be in %.

Illustrative cases are given below, each with its answer.
Molecule	viability, T/C / %
CCC(CC)c1cc(NC2CCC(N)C2)n2nccc2n1 (stereo not drawn) + CCn1c(-c2cccnc2C(C)OC)c2c3cc(ccc31)N1CCOC(CC(NC(=O)C(C(C)C)N(C)C(=O)C3(F)CCN(C(=O)C#CC(C)(C)N(C)C)CC3)C(=O)N3CCCC(N3)C(=O)OCC(C)(C)C2)C1	27.7
CCN1CCN(Cc2ccc(Nc3ncc(F)c(-c4cc(F)c5nc(C)n(C(C)C)c5c4)n3)nc2)CC1 + CCn1c(-c2cc(N3CCN(C)CC3)cnc2C(C)OC)c2c3cc(ccc31)-c1csc(n1)CC(NC(=O)C1CC1C)C(=O)N1CCCC(N1)C(=O)OCC(C)(C)C2	21.9
CCC(CC)c1cc(NC2CCC(N)C2)n2nccc2n1 (stereo not drawn) + CCn1c(-c2cc(N3CCN(C)CC3)cnc2C(C)OC)c2c3cc(ccc31)-c1csc(n1)CC(NC(=O)C1CC1C)C(=O)N1CCCC(N1)C(=O)OCC(C)(C)C2	22.1
CC(C)NCC(C(=O)N1CCN(c2ncnc3c2C(C)CC3O)CC1)c1ccc(Cl)cc1 (stereo not drawn) + CCn1c(-c2cccnc2C(C)OC)c2c3cc(ccc31)N1CCOC(CC(NC(=O)C(C(C)C)N(C)C(=O)C3(F)CCN(C(=O)C#CC(C)(C)N(C)C)CC3)C(=O)N3CCCC(N3)C(=O)OCC(C)(C)C2)C1	22.5

Data request: Entry under review: CCN1CCN(Cc2ccc(Nc3ncc(F)c(-c4cc(F)c5nc(C)n(C(C)C)c5c4)n3)nc2)CC1 + CCn1c(-c2cccnc2C(C)OC)c2c3cc(ccc31)N1CCOC(CC(NC(=O)C(C(C)C)N(C)C(=O)C3(F)CCN(C(=O)C#CC(C)(C)N(C)C)CC3)C(=O)N3CCCC(N3)C(=O)OCC(C)(C)C2)C1 . Reported viability, T/C?
Data returned: 23.7

---

- Tested on: 422866-222-R5-J1-PDC complex spheroids viability
- Test: Anticancer human tumor 422866-222-R5-J1-PDC cell line growth inhibition [RAS];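 further: spheroids exposed to compounds for 7 days; 100% = DMSO vehicle control viability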
- Measurement Conditions: second compound 0.3 µM; first compound 0.1 µM; hits give low values
A collection of molecules and their measured viability, T/C
Kindly answer with a numeric value in %, unit omitted.

The following molecules have reported results that may help.
Molecule	Unit Label	viability, T/C
CC(C)n1nc(-c2ccc3oc(N)nc3c2)c2c(N)ncnc21 + CCn1c(-c2cc(N3CCN(C)CC3)cnc2C(C)OC)c2c3cc(ccc31)-c1csc(n1)CC(NC(=O)C1CC1C)C(=O)N1CCCC(N1)C(=O)OCC(C)(C)C2	%	10.9
CC(Nc1ccc2c(c1)OCCn1cc(N3C(=O)OCC3C(F)F)nc1-2)C(N)=O (centres undefined) + CCn1c(-c2cc(N3CCN(C)CC3)cnc2C(C)OC)c2c3cc(ccc31)-c1csc(n1)CC(NC(=O)C1CC1C)C(=O)N1CCCC(N1)C(=O)OCC(C)(C)C2	%	11.8
CC(Nc1ccc2c(c1)OCCn1cc(N3C(=O)OCC3C(F)F)nc1-2)C(N)=O (centres undefined) + CCn1c(-c2cccnc2C(C)OC)c2c3cc(ccc31)N1CCOC(CC(NC(=O)C(C(C)C)N(C)C(=O)C3(F)CCN(C(=O)C#CC(C)(C)N(C)C)CC3)C(=O)N3CCCC(N3)C(=O)OCC(C)(C)C2)C1	%	8.1

Data request: Please tell me: viability, T/C of CCN1CCN(Cc2ccc(Nc3ncc(F)c(-c4cc(F)c5nc(C)n(C(C)C)c5c4)n3)nc2)CC1 + CCn1c(-c2cc(N3CCN(C)CC3)cnc2C(C)OC)c2c3cc(ccc31)-c1csc(n1)CC(NC(=O)C1CC1C)C(=O)N1CCCC(N1)C(=O)OCC(C)(C)C2 , system 422866-222-R5-J1-PDC complex spheroids viability?
Data returned: 19.1
